Measured values drawn from paper PMC5524692 for this set.

target: GLUT5 (Homo sapiens, UniProt P22732, S72Y); construct: gene SLC2A5; GLUT5tr (truncated for the first seven amino acids at the N-terminus); experiment: inhibition of […]-fructose uptake in hxt0 yeast cells expressing GLUT5; type: cell-based; details: read-out: IC50 of ECG
attribute_measured: pIC50
Formally, pIC50 is defined as -log10 of the concentration c, with c in mol/L.

// sample O=C(O[C@@H]1Cc2c(O)cc(O)cc2O[C@@H]1c1ccc(O)c(O)c1)c1cc(O)c(O)c(O)c1 [ECG, (−)-epicatechin-gallate] , its pIC50 was 3.74

---

Target: GLUT5 (Homo sapiens, UniProt P22732, S76I)
Construct: gene SLC2A5; GLUT5tr (truncated for the first seven amino acids at the N-terminus)
Sequence (P22732 8-501 S76I): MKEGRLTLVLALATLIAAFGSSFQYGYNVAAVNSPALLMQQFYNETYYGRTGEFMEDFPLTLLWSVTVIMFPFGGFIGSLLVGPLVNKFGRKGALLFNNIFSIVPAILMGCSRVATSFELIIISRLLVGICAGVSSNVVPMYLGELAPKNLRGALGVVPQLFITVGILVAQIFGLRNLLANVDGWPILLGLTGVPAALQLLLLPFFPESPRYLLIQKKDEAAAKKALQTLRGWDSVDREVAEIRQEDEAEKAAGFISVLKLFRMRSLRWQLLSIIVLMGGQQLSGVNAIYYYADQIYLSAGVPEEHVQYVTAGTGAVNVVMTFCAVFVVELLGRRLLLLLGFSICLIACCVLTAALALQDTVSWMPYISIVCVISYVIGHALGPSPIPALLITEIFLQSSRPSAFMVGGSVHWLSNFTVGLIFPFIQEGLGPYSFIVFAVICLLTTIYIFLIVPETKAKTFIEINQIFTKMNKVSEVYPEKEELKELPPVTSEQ
Assay: inhibition of […]-fructose uptake in hxt0 yeast cells expressing GLUT5
Type: cell-based
Details: read-out: IC50 of ECG
attribute_measured: IC50 (µM)
Report as a plain number; the unit µM is understood.

// sample O=C(O[C@@H]1Cc2c(O)cc(O)cc2O[C@@H]1c1ccc(O)c(O)c1)c1cc(O)c(O)c(O)c1 [ECG, (−)-epicatechin-gallate] , its IC50 was 140
